pKd: −log10 of the molar value.
Consider the following pKd values measured on JAK2 (Homo sapiens, UniProt O60674).
Sequence (O60674 whole entry): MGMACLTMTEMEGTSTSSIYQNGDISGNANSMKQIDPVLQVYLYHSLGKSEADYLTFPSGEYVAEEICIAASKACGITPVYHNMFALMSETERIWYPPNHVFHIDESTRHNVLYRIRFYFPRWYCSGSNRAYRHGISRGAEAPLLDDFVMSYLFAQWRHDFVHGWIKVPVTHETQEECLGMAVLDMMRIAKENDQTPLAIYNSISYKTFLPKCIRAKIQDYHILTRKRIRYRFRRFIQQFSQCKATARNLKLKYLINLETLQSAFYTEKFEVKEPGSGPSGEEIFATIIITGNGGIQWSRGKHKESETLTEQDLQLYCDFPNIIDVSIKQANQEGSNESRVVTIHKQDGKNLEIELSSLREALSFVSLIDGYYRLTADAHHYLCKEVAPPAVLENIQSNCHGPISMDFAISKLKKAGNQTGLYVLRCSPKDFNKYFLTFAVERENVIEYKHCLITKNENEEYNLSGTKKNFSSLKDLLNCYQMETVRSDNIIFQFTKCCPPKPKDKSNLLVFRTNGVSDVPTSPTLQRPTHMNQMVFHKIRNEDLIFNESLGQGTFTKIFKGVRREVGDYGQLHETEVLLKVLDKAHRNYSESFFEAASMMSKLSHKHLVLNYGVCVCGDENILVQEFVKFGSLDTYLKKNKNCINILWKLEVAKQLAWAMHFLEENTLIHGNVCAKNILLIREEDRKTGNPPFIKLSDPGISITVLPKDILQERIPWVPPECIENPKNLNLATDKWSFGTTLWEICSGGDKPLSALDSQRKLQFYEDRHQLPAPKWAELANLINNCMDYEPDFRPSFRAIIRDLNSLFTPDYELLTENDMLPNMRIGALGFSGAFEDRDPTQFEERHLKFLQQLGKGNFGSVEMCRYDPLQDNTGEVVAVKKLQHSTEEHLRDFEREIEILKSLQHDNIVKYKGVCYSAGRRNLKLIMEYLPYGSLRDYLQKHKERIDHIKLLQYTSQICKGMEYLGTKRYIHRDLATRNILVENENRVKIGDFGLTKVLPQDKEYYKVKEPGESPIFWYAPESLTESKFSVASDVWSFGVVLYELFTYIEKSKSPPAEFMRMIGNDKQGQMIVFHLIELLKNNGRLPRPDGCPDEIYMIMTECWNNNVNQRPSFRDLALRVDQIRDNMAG

Below are worked cases with known answers.
{"Molecule": "Cc1cnc(Nc2nc(C(O)c3ccc(F)cc3)nc3ccccc23)s1 (racemic) [Example 5]", "Measurement Target": "JAK2 (Homo sapiens, UniProt O60674)", "pKd": "≥ 8.00"}
{"Molecule": "Cn1cnc(Nc2nc(C(O)c3ccc(F)cc3)nc3ccccc23)c1 (racemic) [Example 2]", "Measurement Target": "JAK2 (Homo sapiens, UniProt O60674)", "pKd": "≥ 8.00"}
{"Molecule": "OC(c1ccc(F)cc1)c1nc(Nc2c[nH]cn2)c2ccccc2n1 (racemic) [Example 3]", "Measurement Target": "JAK2 (Homo sapiens, UniProt O60674)", "pKd": "7.30 to 8.00"}

Attention now turns to another entry.
Provide pKd, tested on JAK2 (Homo sapiens, UniProt O60674), for OC(c1ccc(F)cc1)c1nc(Nc2cscn2)c2ccccc2n1 (racemic) [Example 4] . 7.30 to 8.00

====

biological target: JAK3 (Homo sapiens, UniProt P52333)
Sequence (P52333 whole entry): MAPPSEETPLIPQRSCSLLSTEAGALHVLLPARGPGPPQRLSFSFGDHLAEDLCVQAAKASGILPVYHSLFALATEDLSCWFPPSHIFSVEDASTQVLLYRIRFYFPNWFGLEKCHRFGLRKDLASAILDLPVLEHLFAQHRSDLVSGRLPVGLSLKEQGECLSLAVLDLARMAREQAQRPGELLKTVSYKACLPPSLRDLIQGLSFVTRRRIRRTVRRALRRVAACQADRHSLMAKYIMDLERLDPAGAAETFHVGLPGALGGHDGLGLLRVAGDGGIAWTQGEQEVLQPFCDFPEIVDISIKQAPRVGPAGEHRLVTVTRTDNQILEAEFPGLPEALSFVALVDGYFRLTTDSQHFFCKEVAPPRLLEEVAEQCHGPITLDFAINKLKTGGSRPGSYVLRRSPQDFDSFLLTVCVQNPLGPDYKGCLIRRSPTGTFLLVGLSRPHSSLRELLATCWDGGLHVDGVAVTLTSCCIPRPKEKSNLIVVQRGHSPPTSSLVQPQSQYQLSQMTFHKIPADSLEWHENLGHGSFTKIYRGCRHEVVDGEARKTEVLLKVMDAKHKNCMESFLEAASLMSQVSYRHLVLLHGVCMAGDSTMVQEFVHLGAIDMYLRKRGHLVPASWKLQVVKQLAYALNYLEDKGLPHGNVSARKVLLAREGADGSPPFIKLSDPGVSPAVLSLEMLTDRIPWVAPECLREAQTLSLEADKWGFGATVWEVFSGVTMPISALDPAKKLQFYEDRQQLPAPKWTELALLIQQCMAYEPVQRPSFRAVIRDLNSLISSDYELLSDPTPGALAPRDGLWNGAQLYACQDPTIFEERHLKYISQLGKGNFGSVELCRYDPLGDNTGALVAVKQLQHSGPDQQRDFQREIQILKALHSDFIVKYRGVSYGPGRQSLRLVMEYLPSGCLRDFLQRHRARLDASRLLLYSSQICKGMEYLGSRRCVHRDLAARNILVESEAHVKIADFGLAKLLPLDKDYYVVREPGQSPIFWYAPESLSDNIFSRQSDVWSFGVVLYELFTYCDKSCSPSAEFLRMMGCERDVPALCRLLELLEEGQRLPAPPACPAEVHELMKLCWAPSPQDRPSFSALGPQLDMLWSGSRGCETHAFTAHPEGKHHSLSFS
The following compounds are shown together with reported Kd values.

Below are worked cases with known answers.
{"Compound": "OC(c1ccc(F)cc1)c1nc(Nc2c[nH]cn2)c2ccccc2n1 (racemic)", "Kd": "> 100 nM"}
{"Compound": "Cn1cnc(Nc2nc(C(O)c3ccc(F)cc3)nc3ccccc23)c1 (racemic)", "Kd": "10 to 100 nM"}

Answer with reported Kd of Cc1cnc(Nc2nc(C(O)c3ccc(F)cc3)nc3ccccc23)s1 (racemic) > 100 nM

Answer with reported Kd of OC(c1ccc(F)cc1)c1nc(Nc2cscn2)c2ccccc2n1 (racemic) > 100 nM
